Quick reference for MBC among some compounds
- System: H. pylori
- test details: MBC by plating broth culture from the MIC assay onto Müller-Hinton agar
- Assay type: cell-based
- measurement setup: Helicobacter pylori; H. pylori; lowest concentration without colonies after 72 h; read-out: MBC

Would you kindly share the measured MBC for O=C(/C=C/c1ccccc1)N/N=C1\CCCc2oc([N+](=O)[O-])cc21 ? 0.25 µg/mL

* * *

Listed compounds paired with reported log10(MBC)
- Test system: H. pylori
- test details: MBC by plating broth culture from the MIC assay onto Müller-Hinton agar
- Format: cell-based
- measurement setup: Helicobacter pylori; H. pylori; lowest concentration without colonies after 72 h; read-out: MBC
Please interpret these as log10 of MBC where MBC is in µg/mL.

INSERT INTO assay_data (compound, observable, observed_measurement) VALUES
  ('O=C(/C=C/c1ccccc1)N/N=C/c1ccc([N+](=O)[O-])o1 [Compound 11]', 'log10(MBC)', 0.00);

May I ask what log10(MBC) has been recorded for O=C1CCCc2oc([N+](=O)[O-])cc21 [Compound 12] ? 0.00

Same again, this time with Cc1ccc(NP(=O)(N/N=C/c2ccc([N+](=O)[O-])o2)N2CCOCC2)cc1 (centres unmarked) [Compound 8] 0.60

What about this compound? O=C(Nc1ccc([N+](=O)[O-])cc1Cl)c1cc(Cl)ccc1O [Niclosamide, reference compound] -0.30

Further, for CC1(C)S[C@@H]2[C@H](NC(=O)[C@H](N)c3ccc(O)cc3)C(=O)N2[C@H]1C(=O)O [Amoxicillin, reference compound] ? -1.60

NC(=O)N/N=C1/CCCc2oc([N+](=O)[O-])cc21 [Compound 13] ? -0.60

Next up: Br.CNc1nc2c(s1)CCc1oc([N+](=O)[O-])cc1-2 [Compound 10] 0.60

Then this compound: Br.Nc1nc2c(s1)CCc1oc([N+](=O)[O-])cc1-2 [Compound 9] 0.60
